Hi there, I'd appreciate the recorded endo.tc.24hr for every entry that follows.
Test system: iPSC-CMs, iPSC-ECs and HUVECs phenotypes
Assay: ToxPi 2.0 integration of POD values and physicochemical descriptors
Set-up: species or system human
Conditions: ToxPi-scaled (0-1) score; iPSC endothelial cells, 24 h
Structures can show the parent of a compound that is named as a salt.
Keep the answer to the number alone.

Prompt line: Supply endo.tc.24hr measured with iPSC-CMs, iPSC-ECs and HUVECs phenotypes for O=S(=O)(O)Oc1cc(-c2ccccc2)ccc1Cl [3-PCB 3 sulfate] .
Response line: 0

Prompt line: Supply endo.tc.24hr measured with iPSC-CMs, iPSC-ECs and HUVECs phenotypes for Oc1ccc(-c2ccc(Cl)cc2)cc1 [4'-OH-PCB 3] .
Response line: 0.1152

Prompt line: Supply endo.tc.24hr measured with iPSC-CMs, iPSC-ECs and HUVECs phenotypes for COc1ccc(-c2ccc(Cl)cc2)cc1 [4'-OMe-PCB 3, 4′-methoxy-4-chlorobiphenyl] .
Response line: 0

Prompt line: Supply endo.tc.24hr measured with iPSC-CMs, iPSC-ECs and HUVECs phenotypes for Clc1cc(Cl)c(-c2cc(Cl)c(Cl)cc2Cl)cc1Cl [PCB 153, 2,2′,4,4′,5,5′-hexachlorobiphenyl] .
Response line: 0.1249

Prompt line: Supply endo.tc.24hr measured with iPSC-CMs, iPSC-ECs and HUVECs phenotypes for Clc1ccc(Cl)c(-c2c(Cl)ccc(Cl)c2Cl)c1 [PCB 95, 2,2′,3,5′,6-pentachlorobiphenyl] .
Response line: 0

----------
Tested on: HUVECs
Assay: High-content imaging cytotoxicity in HUVECs, 24 h
Assay type: cell-based, human
Conditions: Homo sapiens, HUVEC, 24 h, HUVEC, mito, 24 hr; read-out: POD huvec.mito.24hr
Counter-ions that a name gives are not always drawn.
Hi there, I'd appreciate the recorded minimal effective concentration for every entry that follows.
Numeric only. Scale: µM

Prompt line: Supply minimal effective concentration measured with HUVECs for `COc1cc(Cl)c(-c2cc(Cl)ccc2Cl)cc1Cl` .
Response line: 0.55

Prompt line: Supply minimal effective concentration measured with HUVECs for `Clc1ccc(-c2ccccc2)cc1` .
Response line: 100

Prompt line: Supply minimal effective concentration measured with HUVECs for `Oc1ccccc1-c1ccc(Cl)cc1` .
Response line: 4.06

Prompt line: Supply minimal effective concentration measured with HUVECs for O=S(=O)(O)Oc1cc(Cl)c(-c2cc(Cl)ccc2Cl)cc1Cl [4-PCB 52 sulfate] .
Response line: 3.31

----------
Hi there, I'd appreciate the recorded activity at 1 µM for every entry that follows.
Tested on: iCell cardiomyocytes (human iPSC-derived cardiomyocytes)
Assay: High-content imaging of cytotoxicity and mitochondrial integrity in iPSC-CMs
Assay type: cell-based
Settings: Homo sapiens, Cardiomyocyte, 1.5 h, 1.00 µM; 0.00 µM = 100.00; read-out: cm.mii.90min
Where a name gives a salt, the structure may show the parent alone.
Numeric only. Scale: %

Prompt line: Report activity at 1 µM for Oc1cc(Cl)cc(-c2cccc(Cl)c2)c1 [5-OH PCB 11]
Response line: 90.6

Prompt line: Report activity at 1 µM for COc1ccc(-c2ccc(Cl)cc2)cc1 [4'-OMe PCB3]
Response line: 103

Prompt line: Report activity at 1 µM for COc1ccc(-c2cccc(Cl)c2)cc1Cl [4-OMe PCB11]
Response line: 94.7

Prompt line: Report activity at 1 µM for O=S(=O)(O)Oc1ccc(-c2ccc(Cl)cc2)cc1 [4'-yl PCB 3 sulfate]
Response line: 109

Prompt line: Report activity at 1 µM for Clc1ccc(-c2ccccc2)cc1 [PCB3]
Response line: 104

Prompt line: Report activity at 1 µM for O=S(=O)(O)Oc1ccc(-c2cccc(Cl)c2)cc1Cl [4-yl PCB 11 sulfate]
Response line: 114

Prompt line: Report activity at 1 µM for O=C1C=CC(=O)C(c2ccc(Cl)cc2)=C1 [4-Cl-BQ, 2-(4-Chlorophenyl)benzo-2,5-quinone]
Response line: 117
